This collection of values is drawn from paper PMC3116189.

test_system: CYP1A2 (Homo sapiens, UniProt P05177);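 further: recombinant CYP1A2 incubated for 1 h at 37 °C, with the reaction started by an NADPH-generating system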
Sequence (P05177 whole entry): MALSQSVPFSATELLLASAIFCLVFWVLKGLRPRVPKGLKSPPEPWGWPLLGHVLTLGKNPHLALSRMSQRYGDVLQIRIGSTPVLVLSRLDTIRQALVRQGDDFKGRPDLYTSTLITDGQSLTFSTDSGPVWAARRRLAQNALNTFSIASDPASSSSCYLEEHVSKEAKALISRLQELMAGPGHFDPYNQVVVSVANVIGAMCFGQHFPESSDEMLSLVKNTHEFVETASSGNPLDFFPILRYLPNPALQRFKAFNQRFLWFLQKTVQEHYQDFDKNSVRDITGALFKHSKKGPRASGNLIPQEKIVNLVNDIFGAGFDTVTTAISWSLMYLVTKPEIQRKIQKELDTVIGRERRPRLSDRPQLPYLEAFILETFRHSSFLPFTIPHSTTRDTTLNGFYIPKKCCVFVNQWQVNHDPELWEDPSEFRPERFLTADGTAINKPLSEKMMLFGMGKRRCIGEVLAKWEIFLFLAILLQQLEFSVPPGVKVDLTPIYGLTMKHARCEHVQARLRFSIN
assay_info: in vitro
Assay type: biochemical
test_context: human, recombinant human CYP1A2, pH 7.4, probe phenacetin (25 μM), O-deethylation to acetaminophen; 1 μM active ingredient, Rh CYP1A2-mediated phenacetin O-deethylation, test dataset of 202 herb ingredients; read-out: % of Control Indication Activity (Mean)
assay_endpoint: activity at 1 h, 1 μM

The following molecules have reported results that may help.
{"molecule": "CC1(C)[C@@H](O)CC[C@]2(C)[C@H]3C(=O)C=C4[C@@H]5C[C@@](C)(C(=O)O)CC[C@]5(C)CC[C@@]4(C)[C@]3(C)CC[C@@H]12", "test_system": "CYP1A2 (Homo sapiens, UniProt P05177)", "endpoint_result": "> 90%"}
{"molecule": "CC(C)=CCC[C@](C)(O[C@@H]1O[C@H](CO)[C@@H](O)[C@H](O)[C@H]1O)[C@H]1CC[C@]2(C)[C@@H]1[C@H](O)C[C@@H]1[C@@]3(C)CC[C@H](O)C(C)(C)[C@@H]3[C@@H](O[C@@H]3O[C@H](CO)[C@@H](O)[C@H](O)[C@H]3O)C[C@]12C [Ginsenoside Rg1]", "test_system": "CYP1A2 (Homo sapiens, UniProt P05177)", "endpoint_result": "> 90%"}

Find the measured activity at 1 h, 1 μM of C=C1C(=O)O[C@@H]2/C=C(\C)CC/C=C(\C)CC[C@@H]12 [Costunolide] and report it.
> 90%
